The measurements presented in this section are drawn from patent US20250250357A1.

molecular target: T1, human MSLN-FL-his protein (human, UniProt Q13421 296-580); assay: competitive ELISA; row F1.2.12; also: test concentration or dose not given here
T1 construct: made in HEK293E cells, purified on nickel column; also called hMSLN-FL-his; human MSLN full-length protein; not shown: His tag
T1 sequence (Q13421 other isoform, or with tags, fused parts or gaps): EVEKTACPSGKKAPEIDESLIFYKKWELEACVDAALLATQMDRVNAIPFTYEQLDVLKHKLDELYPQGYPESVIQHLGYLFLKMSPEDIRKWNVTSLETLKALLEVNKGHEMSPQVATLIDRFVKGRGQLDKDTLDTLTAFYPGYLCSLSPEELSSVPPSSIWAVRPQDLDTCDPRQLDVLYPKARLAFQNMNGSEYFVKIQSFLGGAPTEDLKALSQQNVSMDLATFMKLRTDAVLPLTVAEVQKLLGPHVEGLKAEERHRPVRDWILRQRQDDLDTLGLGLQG
quantity.measured: competition rate (%)

[
  {
    "binder": "S009-F1.35.24 (antibody, human IgG1, kappa, V domains shown, human-murine chimeric antibody, human IgG1/kappa constant regions) VH: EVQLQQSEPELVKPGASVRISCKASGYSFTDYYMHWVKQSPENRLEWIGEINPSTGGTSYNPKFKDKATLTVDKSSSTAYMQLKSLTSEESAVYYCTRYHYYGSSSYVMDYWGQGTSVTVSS VL: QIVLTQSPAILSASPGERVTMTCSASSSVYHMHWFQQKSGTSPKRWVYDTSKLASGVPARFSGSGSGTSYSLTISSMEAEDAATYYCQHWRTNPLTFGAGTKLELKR",
    "quantity.measured": "competition rate",
    "test.result": -15
  },
  {
    "binder": "Tab107 (YP3, hIgG1) (antibody, V domains shown, Control antibody; VH and VL recombined into human IgG1 CH and CL expression vectors; also called YP3 human IgG1 antibody) VH: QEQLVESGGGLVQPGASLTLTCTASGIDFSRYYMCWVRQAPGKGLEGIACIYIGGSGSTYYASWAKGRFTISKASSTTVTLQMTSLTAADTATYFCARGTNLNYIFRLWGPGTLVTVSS VL: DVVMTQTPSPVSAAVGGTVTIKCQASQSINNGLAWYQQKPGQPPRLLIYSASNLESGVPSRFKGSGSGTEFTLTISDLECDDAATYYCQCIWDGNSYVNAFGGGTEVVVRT",
    "quantity.measured": "competition rate",
    "test.result": -41
  },
  {
    "binder": "S009-F2.23.12 (antibody, human IgG1, kappa, V domains shown, human-murine chimeric antibody, human IgG1/kappa constant regions) VH: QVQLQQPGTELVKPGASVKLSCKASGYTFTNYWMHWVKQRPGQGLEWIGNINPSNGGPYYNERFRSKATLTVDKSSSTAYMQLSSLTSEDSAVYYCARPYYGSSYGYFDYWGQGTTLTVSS VL: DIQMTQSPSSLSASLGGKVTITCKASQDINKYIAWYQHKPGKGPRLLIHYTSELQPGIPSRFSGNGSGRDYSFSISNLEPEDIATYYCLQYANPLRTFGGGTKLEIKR",
    "quantity.measured": "competition rate",
    "test.result": -70
  }
]
